Category key, based on recorded logP: category 1 (below 2), category 2 (2 to below 3), category 3 (3 or more)

Worked set:
Compound	Assigned label
NC1CCc2ccccc2C1O (stereo not drawn)	category 1
NC1C2CCC1c1cccc(C(F)(F)F)c1C2 (stereo not drawn)	category 3
O=[N+]([O-])c1ccc(O[C@@H]2O[C@H](CO)[C@H](O)[C@H](O)[C@H]2O)cc1	category 1
NC1C2CCC1c1ccc(C(F)(F)F)cc1C2 (stereo not drawn)	category 3
CCC(=O)O[C@]1(c2ccccc2)C[C@H](C)N(C)C[C@H]1C	category 3

-- ask Using the reported logP, which band applies to Cc1cc(=O)oc2ccc(O[C@@H]3O[C@H](CO)[C@@H](O)[C@H](O)[C@H]3O)cc12 ?
-- reply category 1

-- ask Using the reported logP, which band applies to OC(c1ccccc1)C(O)c1ccccc1 (stereo not drawn) ?
-- reply category 1

-- ask Using the reported logP, which band applies to NC1C2CCC1c1cc(C(F)(F)F)ccc1C2 (stereo not drawn) ?
-- reply category 3

====

Let's look at some molecules and their measured logP.

Some molecules with known logP results, for comparison:
Molecule	logP
CCC(=O)OC1(c2ccccc2)CCN(C)C(C)C1C (stereo not given)	2.97
C=CCC1CN(C)CCC1(OC(=O)CC)c1ccccc1 (stereo not given)	2.97
C=C[C@H]1CN2CC[C@H]1C[C@@H]2[C@@H](O)c1ccnc2ccccc12	2.68
CC(=O)OC1(c2ccccc2)CCN(C)C(C)C1C (stereo not given)	2.51
C[C@H](N)[C@H](O)c1ccccc1 (relative stereo)	0.67

-- ask What logP value was documented for this molecule, COc1cccc([C@]2(O)CCCC[C@H]2CN(C)C)c1 (relative stereo) ?
-- reply 2.51

-- ask What logP value was documented for this molecule, COc1ccccc1/C=C/C(=O)O ?
-- reply 2.54

-- ask What logP value was documented for this molecule, CCC(=O)OC1(c2ccccc2)CCN(C)CC1C (stereo not given) ?
-- reply 2.43

-- ask What logP value was documented for this molecule, NC1C2CCC1c1ccccc1C2 (stereo not given) ?
-- reply 2.04

-- ask What logP value was documented for this molecule, NC1C2CCC1c1ccccc12 (stereo not given) ?
-- reply 2.01

src = the SangsterLogP compilation
